System: NFAT
Assay: siRNA transfection array, NFAT EGFP reporter, HepG2 cells
Assay type: cell-based, human
Conditions: NFAT reporter, 48 h culture
readout_kind: Relative intensity ratio of EGFP fluorescence against Scramble II Duplex, NFAT (%)
Give the number; % is assumed, so skip it.

# count of solved cases: 3
[
  {
    "substance": "E2F siRNA: siRNA SEQ ID NO: 56 (Dharmacon), targets human E2F-1 M96577 (CUGACCAUCAGUACCUGGC; chemistry not given here)",
    "unit_spec": "%",
    "endpoint_value": 111.8
  },
  {
    "substance": "SRF siRNA: siRNA SEQ ID NO: 70 (Dharmacon), targets human serum response factor J03161 (CAGCACCUAGCACCUCUAC; chemistry not given here)",
    "unit_spec": "%",
    "endpoint_value": 174.7
  },
  {
    "substance": "HSF-1 siRNA: siRNA SEQ ID NO: 59 (Dharmacon), targets human HSF1 NM_005526 (GGAGUGCAUGGACUCCAAG; chemistry not given here)",
    "unit_spec": "%",
    "endpoint_value": 89.4
  }
]

Using the record for RARB1 siRNA: siRNA SEQ ID NO: 66 (Dharmacon), targets human RARB transcript variant 1 NM_000965 (GUGAACUGGCCACCAAGUG; chemistry not given here) , report its Relative intensity ratio of EGFP fluorescence against Scramble II Duplex, NFAT. 91.3

Now the substance HSF-2 siRNA: siRNA SEQ ID NO: 60 (Dharmacon), targets human HSF2 M65217 (GUUCCACACAGUAGGACUG; chemistry not given here) 120.0
